# collection of Ki values tested on human DHEA sulfotransferase (SULT 2A1) (Homo sapiens, UniProt Q06520)
# Sequence (Q06520 whole entry): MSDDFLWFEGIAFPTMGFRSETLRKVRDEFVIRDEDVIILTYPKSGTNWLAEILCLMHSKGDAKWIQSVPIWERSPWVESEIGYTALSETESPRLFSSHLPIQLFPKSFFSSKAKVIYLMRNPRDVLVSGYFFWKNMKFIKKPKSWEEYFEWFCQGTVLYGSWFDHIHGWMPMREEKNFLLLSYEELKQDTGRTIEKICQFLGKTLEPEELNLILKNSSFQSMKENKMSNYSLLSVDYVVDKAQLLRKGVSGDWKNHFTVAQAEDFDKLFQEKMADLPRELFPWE
Write down the numeric answer in µM and omit the unit.

Which Ki value belongs to CCCCCCCCCc1ccc(O)cc1 ?
10.5

Repeat for the following molecule: CC(C)(c1ccc(O)cc1)c1ccc(O)cc1
16.3

Repeat for the following molecule: CC(C)(C)CC(C)(C)c1ccc(O)cc1
2.8

Repeat for the following molecule: CCCCOC(=O)c1ccccc1C(=O)OCCCC [Dibutyl phthalate, dibutyl phthalate]
21.5

Origin of the recorded values: paper PMC2174413
